Entry source: the supplement of paper PMC11061612

Overview of reported Bliss excess across a group of compounds:
Test system: NCI-H1435 (Non-Small Cell Lung Carcinoma);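 also: after 72 h of two-drug dosing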
protocol.text: Bliss excess, mean over the matrix (fraction); higher = more synergy
Lab note: record the figure alone, no unit after it.

Below are worked cases with known answers.
| compound | target.desc | property | experimental.value |
| --- | --- | --- | --- |
| NC1(C(=O)N[C@@H](CCO)c2ccc(Cl)cc2)CCN(c2ncnc3[nH]ccc23)CC1 [Capivasertib] + C[C@@H]1COCCN1C2=NC(=NC(=C2)C3(CC3)[S@](=N)(=O)C)C4=C5C=CNC5=NC=C4 [AZD6738] (first compound max 10 µM, 7x7, partner max 10 µM) | NCI-H1435 (Non-Small Cell Lung Carcinoma) | Bliss excess | 0.0077 |
| Cc1c2c(nn1C)CSCc1cc(n(C)n1)CSc1cc(c3ccccc3c1)OCCCc1c(C(=O)O)n(C)c3c-2c(Cl)ccc13 [AZD5991] + C[C@@H]1COCCN1C2=NC(=NC(=C2)C3(CC3)[S@](=N)(=O)C)C4=C5C=CNC5=NC=C4 [AZD6738] (first compound max 1 µM, 7x7, partner max 10 µM) | NCI-H1435 (Non-Small Cell Lung Carcinoma) | Bliss excess | 0.0488 |
| NC1(C(=O)N[C@@H](CCO)c2ccc(Cl)cc2)CCN(c2ncnc3[nH]ccc23)CC1 [Capivasertib] + Cn1cnc2c(F)c(Nc3ccc(Br)cc3Cl)c(C(=O)NOCCO)cc21 [Selumetinib] (first compound max 10 µM, 7x7, partner max 10 µM) | NCI-H1435 (Non-Small Cell Lung Carcinoma) | Bliss excess | 0.0234 |
| C[C@@H]1COCCN1c1cc(C2([S@](C)(=N)=O)CC2)nc(-c2ccnc3[nH]ccc23)n1 [AZD6738] + C1CC(C1)(C(=O)[O-])C(=O)[O-].N.N.[Pt+2] [Carboplatin] (first compound max 10 µM, 7x7, partner max 10 µM) | NCI-H1435 (Non-Small Cell Lung Carcinoma) | Bliss excess | -0.0103 |

Value lookup for Bliss excess; key = CC(=O)c1c(C)c2cnc(Nc3ccc(N4CCNCC4)cn3)nc2n(C2CCCC2)c1=O [Palbociclib] + Cc1c2c(nn1C)CSCc1cc(n(C)n1)CSc1cc(c3ccccc3c1)OCCCc1c(C(=O)O)n(C)c3c-2c(Cl)ccc13 [AZD5991] (first compound max 10 µM, 7x7, partner max 1 µM)
-0.0308
